- System tested: Ba/F3-FGFR4-transfected cells (Homo sapiens)
- Sequence (P22455 whole entry, change not shown): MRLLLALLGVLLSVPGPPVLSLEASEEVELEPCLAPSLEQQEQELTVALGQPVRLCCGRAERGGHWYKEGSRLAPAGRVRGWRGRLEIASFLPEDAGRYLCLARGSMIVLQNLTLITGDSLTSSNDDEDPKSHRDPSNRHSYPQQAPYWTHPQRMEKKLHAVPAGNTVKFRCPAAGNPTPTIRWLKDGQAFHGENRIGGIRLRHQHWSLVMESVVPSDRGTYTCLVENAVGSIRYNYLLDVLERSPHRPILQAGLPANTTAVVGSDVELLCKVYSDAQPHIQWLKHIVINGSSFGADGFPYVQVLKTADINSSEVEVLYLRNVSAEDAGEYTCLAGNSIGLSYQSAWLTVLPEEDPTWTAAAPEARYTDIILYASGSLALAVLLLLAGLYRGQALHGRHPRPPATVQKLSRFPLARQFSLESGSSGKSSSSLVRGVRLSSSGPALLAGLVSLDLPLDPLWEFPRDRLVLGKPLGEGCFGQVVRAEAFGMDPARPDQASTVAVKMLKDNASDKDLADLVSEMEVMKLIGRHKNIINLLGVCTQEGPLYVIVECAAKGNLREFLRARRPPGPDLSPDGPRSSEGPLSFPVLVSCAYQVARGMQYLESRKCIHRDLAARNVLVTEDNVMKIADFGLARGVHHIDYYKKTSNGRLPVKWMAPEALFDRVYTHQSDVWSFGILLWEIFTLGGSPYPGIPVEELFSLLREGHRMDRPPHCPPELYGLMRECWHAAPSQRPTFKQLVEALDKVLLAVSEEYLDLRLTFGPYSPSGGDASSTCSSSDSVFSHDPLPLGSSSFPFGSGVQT
- Method description: Ba/F3-FGFR4 cellular proliferation assay, Alamar Blue
- Assay type: cell-based
Assay metric: BAF3-FGFR4 pIC50
One number for each entry.

Worked cases, answers included:
>>> recorded_number("COc1cc(OC)c(F)c(N(Cc2ncc[nH]2)c2ccc3ncc(-c4ccccc4)nc3n2)c1 [Compound 200]")
7.33
>>> recorded_number("COc1ccc(Cl)c(N(Cc2ncc[nH]2)c2ccc3ncc(-c4cnn(C)c4)nc3n2)c1Cl [Compound 65]")
5.21
>>> recorded_number("COc1cc(OC)c(F)c(N(CCN)c2ccc3ncc(-c4cnn(C)c4)nc3n2)c1F [Compound 67]")
7.37
>>> recorded_number("COc1cc(OC)c(F)c(N(Cc2nc[nH]n2)c2ccc3ncc(-c4cnn(C)c4)nc3n2)c1F [Compound 85]")
7.66

Query molecule follows.
Qu. // lookup BAF3-FGFR4 pIC50 for COc1cc(OC)c(F)c(/N=c2\ccc3ncc(-c4cnn(C)c4)nc3n2CC(O)COC(C)C)c1F (centres unmarked) [Compound 64]
Ans. 7.52

----------
- System tested: UniProt:P21802
- Sequence (P21802 22-821): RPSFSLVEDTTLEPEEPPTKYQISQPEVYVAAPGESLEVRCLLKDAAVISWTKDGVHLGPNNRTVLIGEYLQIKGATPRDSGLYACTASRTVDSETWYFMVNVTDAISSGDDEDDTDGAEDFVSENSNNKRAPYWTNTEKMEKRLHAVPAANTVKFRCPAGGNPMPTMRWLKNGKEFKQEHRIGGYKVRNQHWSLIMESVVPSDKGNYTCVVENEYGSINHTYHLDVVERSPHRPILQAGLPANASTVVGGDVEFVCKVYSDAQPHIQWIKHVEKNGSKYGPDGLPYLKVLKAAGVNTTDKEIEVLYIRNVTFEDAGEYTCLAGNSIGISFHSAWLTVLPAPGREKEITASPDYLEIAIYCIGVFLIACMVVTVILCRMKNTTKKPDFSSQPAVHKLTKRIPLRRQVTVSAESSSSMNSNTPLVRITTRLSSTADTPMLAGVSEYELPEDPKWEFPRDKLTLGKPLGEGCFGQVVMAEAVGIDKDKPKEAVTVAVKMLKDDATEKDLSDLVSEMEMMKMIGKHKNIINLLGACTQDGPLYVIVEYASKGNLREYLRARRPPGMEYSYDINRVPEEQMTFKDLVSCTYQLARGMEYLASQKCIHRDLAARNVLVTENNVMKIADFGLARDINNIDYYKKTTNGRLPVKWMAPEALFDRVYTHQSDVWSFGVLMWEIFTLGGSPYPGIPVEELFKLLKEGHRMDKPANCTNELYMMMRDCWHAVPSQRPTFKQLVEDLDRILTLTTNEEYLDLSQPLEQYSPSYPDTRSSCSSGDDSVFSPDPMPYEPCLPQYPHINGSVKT
- Method description: FGFR2 (enzymatic assay), TR-FRET
- Assay type: biochemical
- Test parameters: enzymatic assay; average values if tested multiple times; read-out: FGFR 2 pIC50 (converted)
Structures can show the parent of a compound that is named as a salt.
For each record, write down the corresponding IC50.
Answers are plain numbers, in nM.

Worked cases, answers included:
>>> recorded_number("COc1cc(OC)cc(N(CC2CCC(=O)N2)c2ccc3ncc(-c4cnn(C)c4)nc3n2)c1 (stereo not shown) [Compound 54]")
4.9
>>> recorded_number("COc1cc(OC)c(F)c(/N=c2\\ccc3ncc(-c4cnn(C)c4)nc3n2CC2CCC(=O)N2)c1F (stereo not shown) [Compound 47]")
1.41

Give me IC50 for each of these molecules, listed below.
1. COc1cc(OC)cc(N(CCCO)c2ccc3ncc(-c4cnn(C)c4)nc3n2)c1
2. COc1cc(OC)cc(N(Cc2ncc[nH]2)c2ccc3ncc(-c4cnn(C)c4)nc3n2)c1 (racemic) [24-DL-tartrate salt]
3. COc1cc(OC)cc(N(Cc2ncc[nH]2)c2ccc3ncc(-c4cnn(C)c4)nc3n2)c1 [24-hydrochloric acid salt]

Ans.
3.98
1.32
1.41

Give me IC50 for each of these molecules, listed below.
1. COc1cc(OC)c(F)c(N(CC(O)COC(C)C)c2ccc3ncc(-c4cnn(C)c4)nc3n2)c1F (stereo not shown) [Compound 62]
2. COc1cc(OC)cc(N(CCO)c2ccc3ncc(-c4cnn(C)c4)nc3n2)c1

Ans.
1. 7.76
2. 3.98

----------
- System tested: FGFR4 (h) (Homo sapiens)
- Sequence (P22455 22-802): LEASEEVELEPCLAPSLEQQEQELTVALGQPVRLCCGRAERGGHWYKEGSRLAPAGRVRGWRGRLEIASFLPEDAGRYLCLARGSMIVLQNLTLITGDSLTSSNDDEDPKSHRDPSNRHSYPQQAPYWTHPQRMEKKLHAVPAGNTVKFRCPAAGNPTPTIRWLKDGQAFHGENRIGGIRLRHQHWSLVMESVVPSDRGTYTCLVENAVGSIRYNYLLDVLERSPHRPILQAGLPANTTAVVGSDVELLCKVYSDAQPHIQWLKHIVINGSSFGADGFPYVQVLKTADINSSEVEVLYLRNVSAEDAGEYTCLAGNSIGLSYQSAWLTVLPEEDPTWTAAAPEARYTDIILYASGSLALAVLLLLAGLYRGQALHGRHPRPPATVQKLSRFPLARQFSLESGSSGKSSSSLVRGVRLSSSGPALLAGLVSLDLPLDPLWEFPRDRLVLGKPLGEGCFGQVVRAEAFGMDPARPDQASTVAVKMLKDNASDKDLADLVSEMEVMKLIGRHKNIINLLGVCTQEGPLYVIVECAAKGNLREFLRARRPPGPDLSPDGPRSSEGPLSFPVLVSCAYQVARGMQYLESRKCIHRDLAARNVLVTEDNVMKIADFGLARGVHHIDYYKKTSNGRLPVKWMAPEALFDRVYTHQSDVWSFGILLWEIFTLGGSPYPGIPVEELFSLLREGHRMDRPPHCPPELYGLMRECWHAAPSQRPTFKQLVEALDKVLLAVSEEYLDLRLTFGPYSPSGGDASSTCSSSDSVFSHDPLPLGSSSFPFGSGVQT
- Method description: FGFR4 (enzymatic assay), TR-FRET
- Type: biochemical
- Test parameters: FGFR 4 pIC50, enzymatic assay
Assay metric: pIC50
Numbers only, as −log10 of the molar value.

Worked cases, answers included:
>>> recorded_number("COc1cc(OC)c(F)c(N(CCN(C2COC2)C2COC2)c2ccc3ncc(-c4cnn(C)c4)nc3n2)c1F (single isomer, unassigned)")
8.49
>>> recorded_number("COc1cc(/N=c2\\ccc3ncc(-c4cnn(C)c4)nc3n2Cc2c(C)noc2C)c(F)c(OC)c1")
8.46
>>> recorded_number("COc1cc(/N=c2\\ccc3ncc(-c4cnn(C)c4)nc3n2CCN2CCOCC2)cc(OC)c1")
8.49
>>> recorded_number("COc1cc(OC)c(F)c(N(Cc2ncc[nH]2)c2ccc3ncc(-c4ccccc4)nc3n2)c1")
8.83
>>> recorded_number("COc1cc(/N=c2\\ccc3ncc(-c4cnn(C)c4)nc3n2CCCN2CCCC2=O)c(F)c(OC)c1")
9.00

Give me pIC50 for each of these compounds, listed below.
1. COc1cc(OC)cc(N(c2ccc3ncc(-c4cnn(C)c4)nc3n2)C(C)c2ncc[nH]2)c1 (stereo not shown)
2. COc1cc(OC)c(F)c(N(CCNC2COC2)c2ccc3ncc(-c4cnn(C)c4)nc3n2)c1

Ans.
1. 8.63
2. 8.18

----------
- System tested: Ba/F3-FGFR1-transfected cells (Homo sapiens)
- Construct: BAF3-FGFR1 (MIN IL3) pIC50; other: minus IL3
- Sequence (P11362 whole entry, change not shown): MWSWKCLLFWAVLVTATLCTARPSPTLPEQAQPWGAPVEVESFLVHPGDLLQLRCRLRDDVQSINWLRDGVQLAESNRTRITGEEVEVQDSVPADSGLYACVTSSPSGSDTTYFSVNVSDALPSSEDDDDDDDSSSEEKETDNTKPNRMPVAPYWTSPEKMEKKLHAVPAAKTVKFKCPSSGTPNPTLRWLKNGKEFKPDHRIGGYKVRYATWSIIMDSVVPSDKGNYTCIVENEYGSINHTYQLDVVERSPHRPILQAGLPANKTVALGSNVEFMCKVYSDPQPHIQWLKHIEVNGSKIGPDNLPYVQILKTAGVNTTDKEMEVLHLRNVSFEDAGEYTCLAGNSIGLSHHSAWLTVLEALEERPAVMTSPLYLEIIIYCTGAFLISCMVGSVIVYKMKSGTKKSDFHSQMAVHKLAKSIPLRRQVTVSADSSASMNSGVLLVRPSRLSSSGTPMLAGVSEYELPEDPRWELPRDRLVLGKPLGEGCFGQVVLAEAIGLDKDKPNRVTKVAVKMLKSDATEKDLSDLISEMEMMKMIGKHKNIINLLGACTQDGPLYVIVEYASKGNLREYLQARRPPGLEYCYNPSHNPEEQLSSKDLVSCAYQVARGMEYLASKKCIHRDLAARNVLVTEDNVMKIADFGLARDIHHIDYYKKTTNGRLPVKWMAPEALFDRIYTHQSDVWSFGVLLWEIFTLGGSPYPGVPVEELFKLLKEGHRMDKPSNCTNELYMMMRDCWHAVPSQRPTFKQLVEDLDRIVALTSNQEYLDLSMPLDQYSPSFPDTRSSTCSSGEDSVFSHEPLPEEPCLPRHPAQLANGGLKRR
- Method description: Ba/F3-FGFR1 (minus IL3) cellular proliferation assay, Alamar Blue
- Type: cell-based
Assay metric: BAF3-FGFR1 (MIN IL3) pIC50
Numbers only.

Worked cases, answers included:
>>> recorded_number("COc1cc(OC)c(F)c(N(CC(O)COC(C)C)c2ccc3ncc(-c4cnn(C)c4)nc3n2)c1 (single isomer, unassigned) [Compound 78]")
7.59
>>> recorded_number("COc1cc(OC)c(F)c(N(CC2COC(=O)N2)c2ccc3ncc(-c4cnn(C)c4)nc3n2)c1 (single isomer, unassigned) [Compound 111]")
7.79
>>> recorded_number("COc1cc(OC)c(F)c(N(CC(C)(C)O)c2ccc3ncc(-c4cnn(CC(C)(C)O)c4)nc3n2)c1 (single isomer, unassigned)")
6.84
>>> recorded_number("COCC(O)CN(c1ccc2ncc(-c3cnn(C)c3)nc2n1)c1c(F)c(OC)cc(OC)c1F (stereo not drawn)")
8.10
>>> recorded_number("COc1cc(OC)c(F)c(N(Cc2cn(S(=O)(=O)N(C)C)cn2)c2ccc3ncc(-c4cnn(C)c4)nc3n2)c1")
7.72

Query molecule follows.
Qu. Hi! What's the reported BAF3-FGFR1 (MIN IL3) pIC50 for COc1cc(OC)c(F)c(N(CC(O)COC(C)C)c2ccc3ncc(-c4cnn(C)c4)nc3n2)c1F (stereo not drawn) [Compound 62] on Ba/F3-FGFR1-transfected cells (Homo sapiens)?
Ans. 8.06

----------
- System tested: UniProtKB P21802
- Method description: FGFR2 (enzymatic assay), TR-FRET
- Format: biochemical
- Test parameters: enzymatic assay; read-out: FGFR 2 pIC50 (converted)
For each record, write down the corresponding IC50.

>>> result("CCN(c1ccc2ncc(-c3cnn(C)c3)nc2n1)c1c(F)c(OC)cc(OC)c1F")
"1.66 nM"
>>> result("COc1cc(OC)c(F)c(N(CC2CCC(=O)N2)c2ccc3ncc(-c4cnn(C5CNC5)c4)nc3n2)c1 (stereo not drawn)")
"4.68 nM"
>>> result("COc1cc(/N=c2\\ccc3ncc(-c4cnn(C)c4)nc3n2CC2CC(O)C(=O)N2)cc(OC)c1 (stereo not drawn)")
"2.57 nM"
>>> result("COc1ccc(Cl)c(N(CC2CCC(=O)N2)c2ccc3ncc(-c4cnn(C)c4)nc3n2)c1Cl (stereo not drawn) [Compound 94]")
"49 nM"
>>> result("COc1cc(OC)c(F)c(N(Cc2ncco2)c2ccc3ncc(-c4cnn(C)c4)nc3n2)c1")
"1.62 nM"
>>> result("COc1cc(OC)cc(N(CC2CC(O)C(=O)N2)c2ccc3ncc(-c4cnn(C)c4)nc3n2)c1 (stereo not drawn)")
"3.98 nM"
>>> result("COc1cc(/N=c2\\ccc3ncc(-c4cnn(C)c4)nc3n2CC2COC2)c(F)c(OC)c1")
"1.51 nM"
>>> result("COc1cc(OC)c(F)c(N(CC#N)c2ccc3ncc(-c4cnn(C)c4)nc3n2)c1F")
"1.1 nM"

Give me IC50 for each of these compounds, listed below.
1. COc1cc(OC)c(F)c(N(CC2CC(O)C(=O)N2)c2ccc3ncc(-c4cnn(C)c4)nc3n2)c1 (stereo not drawn)
2. COc1cc(/N=c2\ccc3ncc(-c4cnn(C)c4)nc3n2CCN2CCOCC2)cc(OC)c1
3. CNCCn1ccnc1CN(c1ccc2ncc(-c3cnn(C)c3)nc2n1)c1cc(OC)cc(OC)c1F
4. COc1cc(OC)cc(N(CC(C)(C)O)c2ccc3ncc(-c4cnn(C)c4)nc3n2)c1

Ans.
["3.24 nM", "2.04 nM", "8.51 nM", "9.12 nM"]

----------
- System tested: KDR (h) (Homo sapiens, UniProt P35968)
- Sequence (P35968 20-1356): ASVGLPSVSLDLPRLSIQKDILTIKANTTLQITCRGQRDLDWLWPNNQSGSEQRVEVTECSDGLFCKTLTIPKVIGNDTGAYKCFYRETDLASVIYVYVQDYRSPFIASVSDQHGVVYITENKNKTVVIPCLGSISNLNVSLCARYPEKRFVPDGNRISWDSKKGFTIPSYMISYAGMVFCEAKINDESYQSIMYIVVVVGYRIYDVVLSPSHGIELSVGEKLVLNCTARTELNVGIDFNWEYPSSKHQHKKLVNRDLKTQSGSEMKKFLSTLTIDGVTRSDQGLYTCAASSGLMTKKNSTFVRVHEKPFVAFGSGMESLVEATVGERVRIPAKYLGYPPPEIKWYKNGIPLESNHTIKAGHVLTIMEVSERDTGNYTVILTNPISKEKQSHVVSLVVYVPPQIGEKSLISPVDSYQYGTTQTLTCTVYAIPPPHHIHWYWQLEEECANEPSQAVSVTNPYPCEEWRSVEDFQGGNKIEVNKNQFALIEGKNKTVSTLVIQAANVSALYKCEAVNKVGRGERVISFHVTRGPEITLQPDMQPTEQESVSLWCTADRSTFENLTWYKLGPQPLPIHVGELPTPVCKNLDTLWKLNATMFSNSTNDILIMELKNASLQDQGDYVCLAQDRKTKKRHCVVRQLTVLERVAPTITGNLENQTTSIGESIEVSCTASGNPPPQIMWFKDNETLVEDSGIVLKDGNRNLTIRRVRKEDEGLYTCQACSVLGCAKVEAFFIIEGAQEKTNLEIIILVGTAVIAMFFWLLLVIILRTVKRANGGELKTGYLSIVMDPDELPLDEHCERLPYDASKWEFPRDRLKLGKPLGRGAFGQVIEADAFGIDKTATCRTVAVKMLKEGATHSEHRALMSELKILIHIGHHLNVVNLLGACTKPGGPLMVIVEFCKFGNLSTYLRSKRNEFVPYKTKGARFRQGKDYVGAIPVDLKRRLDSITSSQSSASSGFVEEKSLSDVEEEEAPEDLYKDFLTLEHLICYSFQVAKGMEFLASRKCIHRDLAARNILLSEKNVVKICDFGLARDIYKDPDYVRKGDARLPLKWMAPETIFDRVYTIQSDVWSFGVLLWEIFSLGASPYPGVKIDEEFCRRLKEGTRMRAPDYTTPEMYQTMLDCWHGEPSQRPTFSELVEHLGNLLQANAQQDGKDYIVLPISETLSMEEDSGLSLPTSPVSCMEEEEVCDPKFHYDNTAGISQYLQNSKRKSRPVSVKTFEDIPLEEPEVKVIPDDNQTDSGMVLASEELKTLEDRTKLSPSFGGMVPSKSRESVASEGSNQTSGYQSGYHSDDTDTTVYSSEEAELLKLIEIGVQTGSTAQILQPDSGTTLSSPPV
- Method description: KDR (VEGFR2) (enzymatic assay), TR-FRET
- Assay type: biochemical
- Test parameters: read-out: VEGFR 2 (KDR) pIC50 (converted)
Assay metric: IC50 (nM)
Answers are plain numbers, in nM.

Worked cases, answers included:
>>> recorded_number("COc1cc(OC)c(F)c(N(Cc2nc(OC)cc(OC)n2)c2ccc3ncc(-c4cnn(C)c4)nc3n2)c1")
50.1
>>> recorded_number("COc1cc(OC)c(F)c(N(CCS(C)(=O)=O)c2ccc3ncc(-c4cnn(CCS(C)(=O)=O)c4)nc3n2)c1")
34.7
>>> recorded_number("COc1cc(OC)c(F)c(N(Cc2c(C)noc2C)c2ccc3ncc(-c4cnn(C)c4)nc3n2)c1")
61.7
>>> recorded_number("COc1cc(OC)c(F)c(N(CC2CCC(=O)N2)c2ccc3ncc(-c4cnn(C5CNC5)c4)nc3n2)c1 (stereo not shown)")
120
>>> recorded_number("COc1cc(OC)c(F)c(N(CC2COC(=O)N2)c2ccc3ncc(-c4cnn(C)c4)nc3n2)c1 (stereo not shown)")
60.3
>>> recorded_number("COc1cc(OC)c(F)c(N(Cc2ncc[nH]2)c2ccc3ncc(-c4cnn(CCS(C)(=O)=O)c4)nc3n2)c1")
9.33

Query compound follows.
Qu. // lookup IC50 for COc1cc(OC)c(F)c(N(CC2CCC(=O)N2CCO)c2ccc3ncc(-c4cnn(C)c4)nc3n2)c1 (single isomer, unassigned) [Compound 218]
Ans. 42.7
